Hey, just so you know, these numbers are from ChEMBL document CHEMBL3885861.

# Species: Rattus norvegicus
# assay.summary: Open TG-GATES - Regimen: Daily Repeat
# Assay type: toxicity, organism-based, Sprague-Dawley
# Design: regimen Daily Repeat, gender Male, age 6 weeks
# applied.conditions: in vivo, po, 0 mg/kg, […], tissue Blood, route gavage, dose level Control, time 7 day
result.type: Lym (%)
Write down the numeric answer in % and omit the unit.

Worked examples follow.
O=C(O)c1cccnc1    78.2
C[C@]12CCC(=O)C=C1CC[C@@H]1[C@@H]2CC[C@@]2(C)[C@H]1CC[C@]2(C)O    81.8
Nc1nc(N)c2nc(-c3ccccc3)c(N)nc2n1    78.8
CN1C(=O)OC(C)(C)C1=O    79.4
CC(=N)S [THIOACETAMIDE]    83.6

Form: compound = `CC(C)(S)[C@@H](N)C(=O)O` ; Lym = 72.8

The measured Lym associated with `O=C(N[C@H](CO)[C@H](O)c1ccc([N+](=O)[O-])cc1)C(Cl)Cl` reads 77.8

Consider CC(C)C(=O)Nc1ccc([N+](=O)[O-])c(C(F)(F)F)c1 [FLUTAMIDE] . Its measured Lym is 81.6

---

K overview
# Organism: Rattus norvegicus
# assay.summary: Open TG-GATES - Regimen: Daily Repeat
# Format: toxicity, organism-based, Sprague-Dawley
# Parameters: regimen Daily Repeat, gender Male, age 6 weeks
# applied.conditions: in vivo, po, 0 mg/kg, 72 h, tissue Plasma, route gavage, dose level Control, time 3 day
Record the value in meq/L, omitting the unit from your answer.

CN1C(=O)OC(C)(C)C1=O [TRIMETHADIONE]    4.6
CCSCC[C@H](N)C(=O)O [ETHIONINE]    3.9
CCN1CCCC1CNC(=O)c1cc(S(N)(=O)=O)ccc1OC (stereo unspecified) [SULPIRIDE]    4.3
CC(=N)S [THIOACETAMIDE]    4.9
O=C(O)c1cccnc1 [NIACIN]    4.4

Per the records, this molecule ( C[C@]12CCC(=O)C=C1CC[C@@H]1[C@@H]2CC[C@@]2(C)[C@H]1CC[C@]2(C)O [METHYLTESTOSTERONE] ) has K equal to 4.2

Reported K for `Nc1nc(N)c2nc(-c3ccccc3)c(N)nc2n1` was 4.1

Lab book: K of CC(C)(S)[C@@H](N)C(=O)O [PENICILLAMINE] noted as 4.1

Consider O=C(N[C@H](CO)[C@H](O)c1ccc([N+](=O)[O-])cc1)C(Cl)Cl [CHLORAMPHENICOL] . Its measured K is 4.1

Sure, the documented K for CC(=O)Oc1cc(C(C)C)c(OCCN(C)C)cc1C [MOXISYLYTE] is 4.2

Per the record, CCc1oc2ccccc2c1C(=O)c1cc(I)c(O)c(I)c1 [BENZIODARONE] has K of 4.7

---

# Species: Rattus norvegicus
# assay.summary: Open TG-GATES - Regimen: Daily Repeat
# Format: toxicity, organism-based, Sprague-Dawley
# Design: regimen Daily Repeat, gender Male, age 6 weeks
# applied.conditions: in vivo, po, 0 mg/kg, […], tissue Kidney, route gavage, dose level Control, time 7 day
result.type: KIDNEY_L (g)
Give just the numeric value; g need not be written.

Examples from the recorded data:
CCSCC[C@H](N)C(=O)O    1.1
CCC(C)(C)C(=O)O[C@H]1C[C@@H](C)C=C2C=C[C@H](C)[C@H](CC[C@@H]3C[C@@H](O)CC(=O)O3)[C@H]21    1.1
CCN1CCCC1CNC(=O)c1cc(S(N)(=O)=O)ccc1OC (centres undefined) [SULPIRIDE]    1.1
O=C(N[C@H](CO)[C@H](O)c1ccc([N+](=O)[O-])cc1)C(Cl)Cl    1.2
CC(=O)Oc1cc(C(C)C)c(OCCN(C)C)cc1C    1.1
Oc1ncnc2[nH]ncc12    1.1

Would you kindly look at the next entry?
Data point: `C[C@]12CCC(=O)C=C1CC[C@@H]1[C@@H]2CC[C@@]2(C)[C@H]1CC[C@]2(C)O` ; KIDNEY_L = 1.2

---

# Species: Rattus norvegicus
# assay.summary: Open TG-GATES - Regimen: Single
# Format: toxicity, organism-based, Sprague-Dawley
# Design: regimen Single, gender Male, age 6 weeks
# applied.conditions: in vivo, po, 0 mg/kg, 24 h, tissue Plasma, route gavage, dose level Control
Could you label it 1 if measured IP is 8 mg/dL or higher, and -1 otherwise?

Illustrative cases are given below, each with its answer.
C#C[C@]1(O)CC[C@H]2[C@@H]3CCc4cc(O)ccc4[C@H]3CC[C@@]21C [ETHINYL ESTRADIOL]    -1
CC(C)(S)[C@@H](N)C(=O)O [PENICILLAMINE]    -1
CC(=N)S [THIOACETAMIDE]    -1
O=C(N[C@H](CO)[C@H](O)c1ccc([N+](=O)[O-])cc1)C(Cl)Cl [CHLORAMPHENICOL]    1
CCN1CCCC1CNC(=O)c1cc(S(N)(=O)=O)ccc1OC (stereo not given) [SULPIRIDE]    -1

# evaluate next
Ask: Quick check, IP >= 8 mg/dL? CCc1oc2ccccc2c1C(=O)c1cc(I)c(O)c(I)c1 [BENZIODARONE]
Reply: -1

---

Reported MCV is given for each of the following molecules.
# Organism: Rattus norvegicus
# assay.summary: Open TG-GATES - Regimen: Daily Repeat
# Assay type: toxicity, organism-based, Sprague-Dawley
# Design: regimen Daily Repeat, gender Male, age 6 weeks
# applied.conditions: in vivo, po, 0 mg/kg, 72 h, tissue Blood, route gavage, dose level Control, time 3 day
Dear colleague, please return just the value in fL, with no unit written.

O=C(N[C@H](CO)[C@H](O)c1ccc([N+](=O)[O-])cc1)C(Cl)Cl [CHLORAMPHENICOL]    66.2

According to the records, this molecule CC(C)C(=O)Nc1ccc([N+](=O)[O-])c(C(F)(F)F)c1 [FLUTAMIDE] displays MCV of 64.6

For this molecule ( O=C(O)c1cccnc1 [NIACIN] ), measured MCV is 62.4

For C[C@]12CCC(=O)C=C1CC[C@@H]1[C@@H]2CC[C@@]2(C)[C@H]1CC[C@]2(C)O [METHYLTESTOSTERONE] the molecule record lists MCV as 62.7

Quick note, MCV for CN1C(=O)OC(C)(C)C1=O [TRIMETHADIONE] landed at 64.2

molecule CC(C)(S)[C@@H](N)C(=O)O [PENICILLAMINE] , MCV observed: 64.6

Noted for CCc1oc2ccccc2c1C(=O)c1cc(I)c(O)c(I)c1 [BENZIODARONE] : its MCV reads 63.6

Reported MCV for CC(=N)S [THIOACETAMIDE] was 65.3

In plain terms, CCN1CCCC1CNC(=O)c1cc(S(N)(=O)=O)ccc1OC (stereo not given) [SULPIRIDE] has a documented MCV of 63.2

The reported MCV of the molecule CC(=O)Oc1cc(C(C)C)c(OCCN(C)C)cc1C [MOXISYLYTE] was 59.9

---

This listing pairs compounds with measured AST.
# Organism: Rattus norvegicus
# assay.summary: Open TG-GATES - Regimen: Daily Repeat
# Type: toxicity, organism-based, Sprague-Dawley
# Set-up: regimen Daily Repeat, gender Male, age 6 weeks
# applied.conditions: in vivo, po, 300 mg/kg, […], tissue Plasma, route gavage, dose level Middle, time 28 day
All answers are understood in IU/L, so give the number only.

Use these answered entries as a reference point.
O=C(N[C@H](CO)[C@H](O)c1ccc([N+](=O)[O-])cc1)C(Cl)Cl [CHLORAMPHENICOL]    63.8
CC(C)(S)[C@@H](N)C(=O)O [PENICILLAMINE]    56.8
CCN1CCCC1CNC(=O)c1cc(S(N)(=O)=O)ccc1OC (centres undefined) [SULPIRIDE]    65.2

Field: next compound
Data point: O=C(O)c1cccnc1 [NIACIN] ; AST = 71.2

---

# Organism: Rattus norvegicus
# assay.summary: Open TG-GATES - Regimen: Daily Repeat
# Format: toxicity, organism-based, Sprague-Dawley
# Set-up: regimen Daily Repeat, gender Male, age 6 weeks
# applied.conditions: in vivo, po, 1000 mg/kg, […], tissue Plasma, route gavage, dose level High, time 28 day
result.type: ALP (IU/L)
Report the value in IU/L with no unit label.

The molecule listed as CCN1CCCC1CNC(=O)c1cc(S(N)(=O)=O)ccc1OC (centres undefined) [SULPIRIDE] has a reported ALP of 1094.8

ALP reported for this molecule CC(C)(S)[C@@H](N)C(=O)O [PENICILLAMINE] : 458.6

The recorded ALP for O=C(O)c1cccnc1 [NIACIN] is 1046.8

Recorded result, O=C(N[C@H](CO)[C@H](O)c1ccc([N+](=O)[O-])cc1)C(Cl)Cl [CHLORAMPHENICOL] , ALP: 936.8
